System: MDA-MB-231 cells
Test: MTT assay, MDA-MB-231
Format: cell-based
Settings: Homo sapiens, MDA-MB-231, 48 h
pIC50: −log10 of the molar value.
We begin with a simple list: items and their reported pIC50.

Illustrative cases are given below, each with its answer.
• COc1ccc(F)cc1-c1ccc2nc(-c3ccccc3)cc(C(=O)Nc3ccccc3)c2c1 = < 4.30
• COc1ccc(-c2cc(C(=O)Nc3ccccc3)c3cc(-c4ccc(Cl)cc4)ccc3n2)cc1 = < 4.30
• COc1ccc(-c2cc(C(=O)Nc3ccccc3)c3cc(-c4cnc(Cl)c(C)c4)ccc3n2)cc1 = < 4.30
• COc1ccc(-c2cc(C(=O)Nc3ccccc3)c3cc(-c4cc(Cl)ccc4F)ccc3n2)cc1 = < 4.30
• COc1ccc(F)cc1-c1ccc2nc(-c3ccc(F)cc3)cc(C(=O)Nc3ccccc3)c2c1 = < 4.30

pIC50 recorded for this compound, COc1ccc(-c2cc(C(=O)Nc3ccccc3)c3cc(-c4cc(F)ccc4OC)ccc3n2)cc1 , is < 4.30

Short answer for O=C(Nc1ccccc1)c1cc(-c2ccccc2)nc2ccc(-c3ccccc3)cc12 [Compound 7h, N,2,6-triphenylquinoline-4-carboxamide] : pIC50 was 4.33

Input COc1cccc2c1C(=O)c1c(O)c3c(c(O)c1C2=O)C[C@@](O)(C(=O)CO)C[C@@H]3O[C@H]1C[C@H](N)[C@H](O)[C@H](C)O1 [Doxorubicin, reference compound] . Output pIC50: 5.27

Measured pIC50, COc1ccc(-c2cc(C(=O)Nc3ccccc3)c3cc(-c4cc(C)ccc4F)ccc3n2)cc1 : < 4.30

// pIC50 value for COc1ccc(-c2cc(C(=O)Nc3ccccc3)c3cc(-c4ccccc4)ccc3n2)cc1 : 4.41

// pIC50 value for COc1ccc(-c2cc(C(=O)Nc3ccccc3)c3cc(-c4cccs4)ccc3n2)cc1 : < 4.30
